Measured protein stability index values are reported for all entries that follow.
B1: CSTF3 (parent)
chain: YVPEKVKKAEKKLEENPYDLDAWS

Variants of: B1
PROTOCOL_TEXT: protein stability index of a GFP-peptide fusion (GPS, HEK-293T) (PSI 1-6); higher = more stable;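 also: lentivirally expressed fusions sorted by FACS into six bins by GFP to DsRed ratio, PSI derived from sequencing read proportions per bin multiplied by bin number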
DETAILS: c terminus: a fixed tail appended
MEASURED_METRIC: protein stability index

INSERT INTO results (mutant_label, measured_metric, result) VALUES
  ('Y1M', 'protein stability index', 4.81),
  ('E14Q', 'protein stability index', 2.02),
  ('V2P', 'protein stability index', 3.87),
  ('N16S', 'protein stability index', 2.65),
  ('A22C', 'protein stability index', 2.59),
  ('K12D', 'protein stability index', 2.9),
  ('W23F', 'protein stability index', 3.27),
  ('L20E', 'protein stability index', 1.76),
  ('E4N', 'protein stability index', 2.19),
  ('S24A', 'protein stability index', 3.55),
  ('P17T', 'protein stability index', 3.18);
